Assay explanation: Toxicity liver stage against HepG2, at 10uM
Format: cell-based
Set-up: test concentration 10 uM, cell line HepG2-A16-CD81EGFP
Measurement parameters: human, HepG2-A16-CD81EGFP cells; read-out: INHIBITION
// reported cytotoxicity at 10 µM per item
Write down the numeric answer in % and omit the unit.

O=C(C1CC1)N(CCc1ccccc1)C1CCOC1 (stereo unspecified); -6.93

Give the measured cytotoxicity at 10 µM of "CCOc1cccc(NC(=O)c2cnc(C)cn2)n1" .
4.14

Give the measured cytotoxicity at 10 µM of O=C1CC(CNc2cncc(Cl)n2)c2ccccc2N1 (stereo unspecified) .
-0.99

Give the measured cytotoxicity at 10 µM of "CC(=O)c1cc(CN2C[C@@H](CN3CCCC3)[C@@H](CO)C2)n(C)c1" .
4.92

Give the measured cytotoxicity at 10 µM of "Cc1cc(N(C)CCN(C)C)n2nc(C)cc2n1" .
7.77

Give the measured cytotoxicity at 10 µM of Cn1cnnc1C1CCCN(C(=O)c2cc(Cl)c3c(c2)OCO3)C1 (stereo unspecified) .
-1.08

Give the measured cytotoxicity at 10 µM of "COCCCSc1ccc(NCc2ccc(C)cn2)cc1" .
15.8
